# subject-of-test: Xanthine dehydrogenase/oxidase (Homo sapiens, UniProt P47989)
# Sequence (P47989 whole entry): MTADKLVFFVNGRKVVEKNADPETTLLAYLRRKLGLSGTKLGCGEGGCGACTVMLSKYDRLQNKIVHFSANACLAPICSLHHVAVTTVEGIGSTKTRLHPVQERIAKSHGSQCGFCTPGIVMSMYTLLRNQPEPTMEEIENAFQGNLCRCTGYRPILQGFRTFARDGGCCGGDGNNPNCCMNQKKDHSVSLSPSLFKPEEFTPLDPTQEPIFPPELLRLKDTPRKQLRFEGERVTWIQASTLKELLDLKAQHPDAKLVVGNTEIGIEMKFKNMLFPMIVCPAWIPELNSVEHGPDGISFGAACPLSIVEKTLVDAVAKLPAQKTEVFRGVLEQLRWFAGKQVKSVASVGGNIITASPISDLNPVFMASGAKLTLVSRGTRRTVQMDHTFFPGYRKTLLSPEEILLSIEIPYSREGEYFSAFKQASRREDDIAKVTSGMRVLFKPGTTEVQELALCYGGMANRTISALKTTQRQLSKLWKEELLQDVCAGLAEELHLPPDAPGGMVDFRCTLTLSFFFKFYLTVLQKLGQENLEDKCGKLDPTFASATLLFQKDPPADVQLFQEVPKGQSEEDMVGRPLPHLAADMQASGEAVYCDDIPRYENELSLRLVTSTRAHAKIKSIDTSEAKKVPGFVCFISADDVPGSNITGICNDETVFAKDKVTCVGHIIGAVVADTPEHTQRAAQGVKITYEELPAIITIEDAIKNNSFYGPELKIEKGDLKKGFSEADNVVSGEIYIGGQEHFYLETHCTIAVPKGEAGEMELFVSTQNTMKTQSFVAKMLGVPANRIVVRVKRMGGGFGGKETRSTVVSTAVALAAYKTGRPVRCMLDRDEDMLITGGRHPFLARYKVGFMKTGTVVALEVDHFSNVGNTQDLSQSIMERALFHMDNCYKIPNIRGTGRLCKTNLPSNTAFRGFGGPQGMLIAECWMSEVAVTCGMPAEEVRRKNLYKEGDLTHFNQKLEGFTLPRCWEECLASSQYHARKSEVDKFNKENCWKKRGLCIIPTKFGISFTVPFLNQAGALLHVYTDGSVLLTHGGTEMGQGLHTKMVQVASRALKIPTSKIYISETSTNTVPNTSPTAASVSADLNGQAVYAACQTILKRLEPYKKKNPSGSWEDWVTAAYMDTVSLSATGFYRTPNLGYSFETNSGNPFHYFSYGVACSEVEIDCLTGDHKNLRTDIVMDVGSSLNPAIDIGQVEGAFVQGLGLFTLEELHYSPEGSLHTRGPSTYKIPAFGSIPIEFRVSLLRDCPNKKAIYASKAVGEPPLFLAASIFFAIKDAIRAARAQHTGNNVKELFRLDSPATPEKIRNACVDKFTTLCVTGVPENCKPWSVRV
# assay: Inhibition of XO (unknown origin) using xanthine as substrate assessed as decrease in uric acid level measured after 3 mins by spectrophotometric analysis
test-readout: pIC50
On this scale, pIC50 is minus log10 of a concentration expressed in M (mol/L).

Inquiry: Given the entry COc1ccc2c(c1)c(CC(=O)O)c(C)n2C(=O)c1ccc(Cl)cc1 , report its measured pIC50.
Reply text: 4.07

---

# subject-of-test: Xanthine dehydrogenase/oxidase (Bos taurus)
# assay: Inhibition of Bovine XO using xanthine as substrate assessed as decrease in uric acid level preincubated for 15 mins followed by substrate addition measured after 2 mins by spectrophotometric analysis
test-readout: IC50

Inquiry: Quick check: IC50 of O=c1[nH]c(-c2ccc(OCC3CCCCC3)c(-n3cnnn3)c2)no1 ?
Reply text: 121 nM

---

# subject-of-test: Xanthine dehydrogenase/oxidase (Bos taurus, UniProt P80457)
# Sequence (P80457 whole entry): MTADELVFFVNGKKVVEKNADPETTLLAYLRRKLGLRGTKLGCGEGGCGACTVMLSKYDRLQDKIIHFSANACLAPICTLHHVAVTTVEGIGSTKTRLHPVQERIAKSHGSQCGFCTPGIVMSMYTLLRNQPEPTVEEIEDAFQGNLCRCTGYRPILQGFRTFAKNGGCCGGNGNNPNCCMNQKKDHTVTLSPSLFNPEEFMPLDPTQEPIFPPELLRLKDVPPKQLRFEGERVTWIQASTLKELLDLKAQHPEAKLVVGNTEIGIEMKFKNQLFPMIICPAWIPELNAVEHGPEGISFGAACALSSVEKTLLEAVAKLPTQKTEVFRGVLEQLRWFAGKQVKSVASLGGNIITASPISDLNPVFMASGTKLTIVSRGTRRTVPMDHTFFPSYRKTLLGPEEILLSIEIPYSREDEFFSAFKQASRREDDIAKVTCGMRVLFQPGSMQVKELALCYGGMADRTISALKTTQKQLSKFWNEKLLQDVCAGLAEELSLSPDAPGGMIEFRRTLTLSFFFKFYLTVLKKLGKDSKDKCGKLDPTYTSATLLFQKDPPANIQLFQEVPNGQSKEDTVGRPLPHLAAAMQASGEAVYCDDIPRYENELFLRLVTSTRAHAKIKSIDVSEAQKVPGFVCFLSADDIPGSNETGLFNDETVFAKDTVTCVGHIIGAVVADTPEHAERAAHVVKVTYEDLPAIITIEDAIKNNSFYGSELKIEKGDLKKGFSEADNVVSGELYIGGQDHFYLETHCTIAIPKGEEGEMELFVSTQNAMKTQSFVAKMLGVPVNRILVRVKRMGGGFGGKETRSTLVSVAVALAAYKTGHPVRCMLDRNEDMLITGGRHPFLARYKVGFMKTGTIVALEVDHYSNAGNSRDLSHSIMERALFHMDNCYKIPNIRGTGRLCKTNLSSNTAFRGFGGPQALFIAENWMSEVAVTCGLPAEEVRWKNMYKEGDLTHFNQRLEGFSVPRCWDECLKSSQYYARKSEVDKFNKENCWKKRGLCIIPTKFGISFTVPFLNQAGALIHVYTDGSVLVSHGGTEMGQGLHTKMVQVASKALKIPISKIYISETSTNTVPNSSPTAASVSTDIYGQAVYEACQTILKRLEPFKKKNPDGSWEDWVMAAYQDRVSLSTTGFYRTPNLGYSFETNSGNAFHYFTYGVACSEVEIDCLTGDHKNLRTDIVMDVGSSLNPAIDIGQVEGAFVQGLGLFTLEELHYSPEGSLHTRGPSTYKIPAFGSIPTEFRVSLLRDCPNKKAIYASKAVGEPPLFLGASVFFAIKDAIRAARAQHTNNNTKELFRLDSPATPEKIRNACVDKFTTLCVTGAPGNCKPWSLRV
# assay: Inhibition of Bovine milk XO using xanthine as substrate assessed as decrease in uric acid level measured after 15 mins by spectrophotometric analysis
test-readout: pIC50
Formally, pIC50 is defined as -log10 of the concentration c, with c in mol/L.

Inquiry: Entry O=C(/C=C/c1cc(O)cc(O)c1)c1ccc(O)cc1O : reported pIC50 = ?
Reply text: 4.65

---

# subject-of-test: Xanthine dehydrogenase/oxidase (Bos taurus, UniProt P80457)
# assay: Inhibition of Bovine milk XO
test-readout: IC50 (µM)
The figure you give is taken to be in µM; do not add the unit.

Inquiry: For the compound OCc1ccc(O)c(O)c1 , what IC50 is on record?
Reply text: 3

---

# subject-of-test: Xanthine dehydrogenase/oxidase (Bos taurus)
# assay: Inhibition of Bovine milk XO measured after 30 mins
Param label: returns class 1 when IC50 < 2 nM, returns class 0 otherwise, including exact equality.

Here are 2 compounds together with their reported answers.
1) Cc1nc(-c2cc(C#N)c3c(c2)CC(C)O3)sc1C(=O)O (stereo not drawn) = class 1
2) Cc1nc(-c2cc(C#N)c3c(c2)CCC(C)(C)O3)sc1C(=O)O = class 0

Inquiry: Please state whether IC50 is below 2 nM for Cc1nc(-c2cc(C#N)c3c(c2)CCC(C)(C)O3)[se]c1C(=O)O
Reply text: class 0

Inquiry: Moving on to the next compound: CCOC(=O)c1sc(-c2cc(I)c3c(c2)CCC(C)(C)O3)nc1C
Reply text: class 1

Inquiry: What do we get for Cc1nc(-c2cc(I)c3c(c2)CCC(C)(C)O3)sc1C(=O)O ?
Reply text: class 1

Inquiry: Also Cc1nc(-c2cc(C#N)c3c(c2)CC2(CCCC2)O3)[se]c1C(=O)O ?
Reply text: class 1

Inquiry: Try this compound next: CCC1(C)Cc2cc(-c3nc(C)c(C(=O)O)s3)cc(C#N)c2O1 (stereo not drawn)
Reply text: class 1

Inquiry: Same again, this time with Cc1nc(-c2cc(C#N)c3c(c2)CC2(CCCCC2)O3)sc1C(=O)O
Reply text: class 1
